target: HCV E1E2 antigen, isolate OH8 (hepatitis C virus, isolate OH8); test: ELISA, Fab on E1E2 antigen
propertyName: OD 450 nm (OD 450 nm)
Answer in OD 450 nm, number only, no unit symbol.

# example entries with known answers
- binder: "Fab P1 (Fab, V domains shown) VH: EVQLLESGGGVVQPGGSLRLSCAASGFTFTSFTMHWVRQAPGKGLEWVALISHDGSNKDYADSVRGRFTVSRDNSKKMVYLQMSSLRPDDAAVYYCARGGPAYYTYSDTLTGYHNVVGDYWGQGTLVTVSS VL: ELTQSPGTLSLSPGERATLSCRASQVRGFLAWFQQKPGQAPRLLIYGASNRAPGIPDRFSGSGSGTDFTLTISRLEPEDFAVYYCQQYGDSPPITFGQGTRLEIKR"
  readoutUnits: "OD 450 nm"
  OD 450 nm: 0.8
- binder: "Fab U1 (Fab, V domains shown) VH: VQLLEQSGPEVKRPGTSVKMSCKISGGASITQAMSWVRQAPGQGLEWMGGITPIFGTVNYAQKILGRVTITADEDTVSLELSSLKSEDTAVYYCAREVNLKTWNLAHPNVFDVWGQGTMLTVSS VL: ELTQSPSSLSASVGDRVTITCRASQSISSFLNWYQQKPGKAPKLLIYAASSLQSGVPPRFSGSGSGTDFTLTISSLQPEDFATYYCQQSYSTPRTFGQGTKLEIKR"
  readoutUnits: "OD 450 nm"
  OD 450 nm: 0.26
- binder: "Fab R1 (Fab, V domains shown) VH: VQLLEQSGAEVKKPGASVKVSCKASGYTFSIYGVAWVRQAPGQGLEWMGWISPQNGDTHSPQKFQGRLTMTTDTSTSTAYMELRSLRSDDTAVYFCARDYGVNFGGGSEHNLDYWGRGTRVTVSS VL: ELTQSPLSLPVTPGEPASISCRSSYSLLHINGYKYLDWYLQRPGQSPQLLIYLGSNRAPGVPDRFSGSGSGTSFTLKISRVEAEDVGVYYCMQSLQAPWTFGQGTKVEMKR"
  readoutUnits: "OD 450 nm"
  OD 450 nm: 0.5

Qu. Fill blank: measured OD 450 nm of the binder Fab P1a (Fab, V domains shown) VH: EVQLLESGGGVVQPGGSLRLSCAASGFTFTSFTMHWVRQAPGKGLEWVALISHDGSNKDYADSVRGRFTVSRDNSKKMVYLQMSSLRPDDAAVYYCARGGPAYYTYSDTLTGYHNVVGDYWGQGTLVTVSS VL: ELTQSPGTLSLSPGERATLSCRTSQSVSSTYLAWYQQKPGQPPRLLIYGASNRAPGIPDRFSGSGSGTDFTLTISRLEPEDFAVYYCQQYGDSPPITFGQGTRLDIKR is ____.
Ans. 0.24

Qu. Fill blank: measured OD 450 nm of the binder Fab N2 (Fab, V domains shown) VH: VQLLEQSGPEVKKPGDSLRISCKMSGDSLVTTWIGWVRQKPGQGLEWMGIINPGDSSTNIYPGDSATRYGPSFQGQVTISIDKSTSTAYLQWNTVKPSDTGIYYCARHVPVPISGTFLWREREMHDFGYFDDWGQGTLVIVSS VL: ELTQSPGTLSLFPGERATLSCRASQSILGRYLAWYQQKGGRAPRLLIFGASKRATGIPDRFSGSGSGTDFTLTIGRLEPEDFAVYYCQHYGSSITFGQGTRLDIKR is ____.
Ans. 1.44

Qu. Fill blank: measured OD 450 nm of the binder Fab N1 (Fab, V domains shown) VH: VQLLEQSGPEVKKPGDSLRISCKMSGDSLVTTWIGWVRQKPGQGLEWMGIINPGDSSTNIYPGDSATRYGPSFQGQVTISIDKSTSTAYLQWNAVKPSDTGIYYCARHVPVPISGTFLWREREMHDFGYFDDWGQGTLVIVSS VL: ELTQSPGTLSLSPGERATLSCRASQSVSSSYLAWYQQKPGQAPRLLIYGASNRAAGIPDRFSGSGSGADFTLTISRLEPEDFAVYYCQQYGSSLITFGQGTRLEIKR is ____.
Ans. 1.13

Origin of values: patent US20110311550A1
